System: S. aureus 043SC (MRSA)
Assay type: cell-based, Staphylococcus aureus
condition summary: clinical strain, broth microdilution, 0.5 × 10^5 CFU/mL, 18 h, 37 °C, at least triplicate
Protocol: Microbiological assays were performed using reference and clinical strains of Staphylococcus aureus. Minimal inhibitory concentrations (MIC) were determined by broth microdilution method on 96-well polystyrene plates according to Clinical and Laboratory Standards Institute (CLSI) recommendations [Clinical and Laboratory Standards Institute (CLSI) [2012]]. […]
Where no end group is shown, it is not given here.
measure: MIC (µg/mL)

INSERT INTO results (substance, number) VALUES
  ('KWKLFKKIGAVLKVL-NH2 [CAMEL Cl^−]', 4),
  ('FLPLIGRVLSGIL-NH2 [Temporin A Cl^−]', 8),
  ('KWKLFKKIGAVLKVL-NH2 [CAMEL TFA^−]', 4),
  ('GLFDVIKKVASVIGGL-NH2 [Citropin 1.1 AcO^−]', 8),
  ('GLFDVIKKVASVIGGL-NH2 [Citropin 1.1 TFA^−]', 8),
  ('KWKLFKKIGAVLKVL-NH2 [CAMEL AcO^−]', 4),
  ('GLFDVIKKVASVIGGL-NH2 [Citropin 1.1 Cl^−]', 8);
